assay: Half life in rat at 2 mg/kg, iv; type: ADME, organism-based; set-up: dose 2 mg/kg, route intravenous; conditions: in vivo
OUTCOME_MEASURE: half-life (h)

>>> print(df.to_string())
                                        smi  result_units  endpoint_value
0  CNc1nc2[nH]c(-c3cccc(CNC(=O)CCOC)c3)cc2c2c1ncn2C             h             4.8

###

experiment: Half life in rat at 10 mg/kg, po; format: ADME, organism-based; set-up: dose 10 mg/kg, route oral; conditions: in vivo
OUTCOME_MEASURE: half-life (h)

>>> print(df.to_string())
                                        smi  endpoint_value
0  CNc1nc2[nH]c(-c3cccc(CNC(=O)CCOC)c3)cc2c2c1ncn2C              11

###

system: PBMC; test: Antiinflammatory activity in human PBMC assessed as inhibition of LPS-induced TNFalpha production treated 30 mins before LPS challenge measured after 6 hrs of LPS induction by ELISA; type: functional, cell-based
Measured IC50 by item
OUTCOME_MEASURE: IC50 (nM)

>>> df
                                        smi  result_units  endpoint_value
0       CNc1nc2c(nc(-c3ccccc3)n2C)c2c1ncn2C            nM             446
1       CNc1nc2[nH]c(-c3ccccc3)cc2c2c1ncn2C            nM             800
2  CNc1nc2[nH]c(-c3cccc(CNC(=O)CCC(N)=O)c3)cc2c2c1ncn2C            nM            1000
3   CNc1nc2[nH]c(-c3cccc(CN)c3)cc2c2c1ncn2C            nM             340
4  CNc1nc2[nH]c(-c3cccc(CNC(C)=O)c3)cc2c2c1ncn2C            nM             372
5  CNc1nc2[nH]c(-c3cccc(CNC(=O)CCOC)c3)cc2c2c1ncn2C            nM             370

###

Measured pIC50 by item
tested on: PBMC; assay: Antiinflammatory activity in human PBMC assessed as inhibition of LPS-induced TNFalpha production treated 30 mins before LPS challenge measured after 6 hrs of LPS induction by ELISA; format: functional, cell-based
pIC50: −log10 of the molar value.
OUTCOME_MEASURE: pIC50

                                        smi  endpoint_value
0      CNc1nc2[nH]c(-c3ccccc3F)cc2c2c1ncn2C            6.03
1          CNc1nc2sc(-c3ccccc3)nc2c2c1ncn2C            6.51
2   CNc1nc2[nH]c(-c3cccc(OC)c3)cc2c2c1ncn2C            6.49
3    CNc1nc2[nH]c(-c3cccc(F)c3)cc2c2c1ncn2C            6.82
4  CNc1nc2[nH]c(-c3cccc(CNC(=O)CN(C)C)c3)cc2c2c1ncn2C            5.70
5    CNc1nc2[nH]c(-c3ccc(F)cc3)cc2c2c1ncn2C            6.27
6  CNc1nc2[nH]c(-c3cccc(C#N)c3)cc2c2c1ncn2C            7.07
7          CNc1nc2oc(-c3ccccc3)nc2c2c1ncn2C            6.41
8  CNc1nc2[nH]c(-c3cccc(CNC(=O)CO)c3)cc2c2c1ncn2C            6.32

###

assay: Total AUC in rat at 10 mg/kg, po; format: ADME, organism-based; design: time AUCmax, dose 10 mg/kg, route oral; conditions: in vivo
OUTCOME_MEASURE: AUC (µM·h)

                                        smi  result_units  endpoint_value
0  CNc1nc2[nH]c(-c3cccc(CNC(=O)CCOC)c3)cc2c2c1ncn2C          µM·h            71.7

###

test system: Serum; test: Drug level in Lewis rat serum at 3 mg/kg, po; type: ADME, organism-based; parameters: dose 3 mg/kg, route oral; settings: in vivo, read-out: Drug uptake
OUTCOME_MEASURE: concentration

In [3]: df
Out[3]:
                                        smi  outcome_measure  endpoint_value
0  CNc1nc2[nH]c(-c3cccc(CNC(=O)CCOC)c3)cc2c2c1ncn2C    concentration          900 nM

###

test: Mean residence time in rat at 10 mg/kg, po; format: ADME, organism-based; set-up: dose 10 mg/kg, route oral; conditions: in vivo
OUTCOME_MEASURE: MRT (h)

>>> print(df.to_string())
                                        smi  outcome_measure  endpoint_value
0  CNc1nc2[nH]c(-c3cccc(CNC(=O)CCOC)c3)cc2c2c1ncn2C              MRT            14.7

###

assay: Total AUC in rat at 2 mg/kg, iv; type: ADME, organism-based; parameters: time AUCmax, dose 2 mg/kg, route intravenous; settings: in vivo
OUTCOME_MEASURE: AUC (µM·h)

>>> print(df.to_string())
                                        smi  outcome_measure  endpoint_value
0  CNc1nc2[nH]c(-c3cccc(CNC(=O)CCOC)c3)cc2c2c1ncn2C              AUC            46.9

###

assay: Clearance in rat at 2 mg/kg, iv; assay type: ADME, organism-based; design: dose 2 mg/kg, route intravenous; settings: in vivo
OUTCOME_MEASURE: clearance

                                        smi  endpoint_value
0  CNc1nc2[nH]c(-c3cccc(CNC(=O)CCOC)c3)cc2c2c1ncn2C   1.8 mL/min/kg

###

experiment: Inhibition of IKK1-catalyzed phosphorylation of GST-tagged IkappaBalpha fusion protein by fluorescence polarization assay
pIC50: −log10 of the molar value.
Measured pIC50 by item
OUTCOME_MEASURE: pIC50

>>> print(df.to_string())
                                        smi  endpoint_value
0    CNc1nc2[nH]c(-c3ccc(F)cc3)cc2c2c1ncn2C            7.37
1  CNc1nc2[nH]c(-c3cccc(C#N)c3)cc2c2c1ncn2C            8.15
2  CNc1nc2[nH]c(-c3cccc(CNC(C)=O)c3)cc2c2c1ncn2C            7.85
3  CNc1nc2[nH]c(-c3cccc(CNC(=O)CCC(N)=O)c3)cc2c2c1ncn2C            7.66
4  CNc1nc2[nH]c(-c3cccc(CNC(=O)CN(C)C)c3)cc2c2c1ncn2C            7.10
